test system: cultured rat forebrain neurons; experiment: Survival assay of neuronal cultures (Alamar Blue reduction, 24 hr); settings: Rattus norvegicus, Neuron, read-out: EC50 of the protective effect against SIN-1 toxicity, SIN-1 1 mM; three experiments
quantity: pEC50
Quick note: pEC50 means taking -log10 of the concentration in moles per liter.

Task item: Find the recorded pEC50 belonging to `O=C(O)c1cc(C(=O)O)c2c(n1)C(=O)C(=O)c1cc(C(=O)O)[nH]c1-2` and report it.
Reply: 4.82

====

test system: Oligodendrocytes; assay: In vitro white matter injury assay: SIN-1 toxicity in oligodendrocytes; format: cell-based; settings: 2 hr exposure in EBSS; examined at 24 hr
quantity: EC50 (µM)
Note: unit µM is implicit; provide only the numeric part.

Task item: Find the recorded EC50 belonging to N=c1c[n+](N2CCOCC2)[n-]o1 [SIN-1, 3-morpholinosydnonimine] and report it.
Reply: 345
